experiment: Cytotoxicity index, ratio of EC50 for mouse J774 cells to EC50 for multi-drug-resistant Plasmodium falciparum TM90-C2B infected in human type A+ erythrocytes; assay type: toxicity, cell-based; details: read-out: Ratio EC50
Assign selectivity ratio to each entry below.

## Task Return selectivity ratio for the following compound: `COc1cc2[nH]c(C)c(-c3c(F)cccc3F)c(=O)c2cc1Cl`
## Result > 3450

## Task Quote selectivity ratio reported for `COc1cc2[nH]c(C)c(-c3ccc(C(F)(F)F)cc3C)c(=O)c2cc1Cl` please.
## Result > 45300

## Task Please supply the value of reported selectivity ratio for the item `COc1cc2[nH]c(C)c(-c3ccc(N4CCN(C)CC4)nc3)c(=O)c2cc1Cl`
## Result > 46.8

## Task Tell me its selectivity ratio given `COc1cc2[nH]c(C)c(-c3cc(C(F)(F)F)cc(C(F)(F)F)c3)c(=O)c2cc1Cl` as the entry.
## Result > 51.1

## Task State its selectivity ratio: `COc1cc2[nH]c(C)c(-c3cccc(CO)c3)c(=O)c2cc1Cl`
## Result > 36.6

## Task Please give the documented selectivity ratio of `COc1cc2[nH]c(C)c(-c3ccc(C(C)C)cc3)c(=O)c2cc1Cl`
## Result > 11000

## Task Please look at this compound and report its selectivity ratio: `COc1cc2[nH]c(C)c(-c3ccc(F)cc3F)c(=O)c2cc1Cl`
## Result > 668

## Task Using the record for `COc1cc2[nH]c(C)c(-c3cccnc3)c(=O)c2cc1Cl` , state its measured selectivity ratio.
## Result > 277

## Task Identify measured selectivity ratio associated with `COc1cc2[nH]c(C)c(-c3ccoc3)c(=O)c2cc1Cl`
## Result > 18600

## Task Give selectivity ratio for the following compound: `CCc1ccccc1-c1c(C)[nH]c2cc(OC)c(Cl)cc2c1=O`
## Result 102

====

conditions: octanol/water, pH 7.4
Value Type: logD
Give the figure by itself; no unit, no explanation.

## Task Tell me measured logD for `COc1cc2[nH]c(C)c(-c3ccc(OCc4ccccc4)c(F)c3)c(=O)c2cc1Cl` please.
## Result 3.8

## Task Provide measured logD value, entry: Cn1c(=O)c2[nH]cnc2n(C)c1=O.O [THEOPHYLLINE]
## Result -5

## Task Identify the reported logD for the following entry. `COc1cc2[nH]c(C)c(-c3ccc(Oc4ccc(OC(F)(F)F)cc4)cc3F)c(=O)c2cc1Cl`
## Result 3.4

====

system: Plasmodium berghei; test: Antimalarial activity against Plasmodium berghei ANKA expressing GFP infected in Balb/c mouse assessed as mouse cured from disease at 10 mg/kg, po qd administered as single dose on day 3 to 5 of exposure measured on day 30 post exposure by in vivo thomson test relative to control; type: functional
Would you kindly list Activity for each of these compounds?

## Task Report measured Activity; entry is `COc1cc2[nH]c(C)c(-c3ccc(C(F)(F)F)cc3)c(=O)c2cc1Cl`
## Result 0%

## Task Query Activity for `COc1cc2[nH]c(C)c(-c3ccc(-c4ccc(OC(F)(F)F)cc4)nc3)c(=O)c2cc1Cl`
## Result 100%

## Task Look up and report measured Activity for this entry: `COc1cc2[nH]c(C)c(-c3ccc(Cl)cc3C)c(=O)c2cc1Cl`
## Result 0%

## Task For `COc1cc2[nH]c(C)c(-c3ccc(Oc4ccc(OC(F)(F)F)cc4)cc3F)c(=O)c2cc1Cl` , write its Activity.
## Result 100%

## Task Determine its reported Activity: `COc1cc2[nH]c(C)c(-c3ccc(-c4ccc(C(F)(F)F)cc4F)nc3)c(=O)c2cc1Cl`
## Result 100%

## Task Read the entry `COc1cc2[nH]c(C)c(-c3ccc(F)cc3)c(=O)c2cc1Cl` and write its reported Activity.
## Result 0%

## Task Tell me Activity reported for `COc1cc2[nH]c(C)c(-c3ccc(Oc4ccccc4)cc3)c(=O)c2cc1Cl`
## Result 0%

## Task Tell me Activity reported for `COc1cc2[nH]c(C)c(-c3ccc(C(F)(F)F)cc3C)c(=O)c2cc1Cl`
## Result 0%

## Task Identify measured Activity associated with `COc1cc2[nH]c(C)c(-c3ccc(Oc4ccc(OC(F)(F)F)cc4)cc3C)c(=O)c2cc1Cl`
## Result 100%
